Reported pKd values are given for each entry in this list.
Assay: Probe calibration by titration with FFA / FFA-BSA complexes: LNA
Assay type: binding
Conditions: equilibrium dissociation constant of probe for LNA
// field semantics: pKd = negative decimal log of concentration (mol/L)

Known pKd results, listed for orientation:
>>> observed_measurement("L2P22 G6: acrylodan-labeled mutant FABP probe: M18I, G31Y, A73G (protein, UniProt P02693 2-132, looked up, variant M18I G31Y A73G, acrylodan label, acrylodan-labeled mutant FABP probe: M18I, G31Y, A73G) Fatty acid-binding protein, …: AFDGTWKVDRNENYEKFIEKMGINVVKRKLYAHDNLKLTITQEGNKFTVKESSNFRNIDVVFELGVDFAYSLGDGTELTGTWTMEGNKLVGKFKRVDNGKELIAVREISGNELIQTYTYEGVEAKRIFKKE")
7.05
>>> observed_measurement("ADIFAB2: acrylodan-labeled (lysine 27) mutant FABP probe: L72A (protein, UniProt P02693 2-132, looked up, variant L72A, acrylodan label on K27, acrylodan-labeled (lysine 27) mutant FABP probe: L72A) Fatty acid-binding protein, …: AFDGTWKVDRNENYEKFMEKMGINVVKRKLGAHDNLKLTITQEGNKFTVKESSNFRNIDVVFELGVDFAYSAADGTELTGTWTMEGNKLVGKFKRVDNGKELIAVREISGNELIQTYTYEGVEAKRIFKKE")
6.63
>>> observed_measurement("L1P8 H2: acrylodan-labeled mutant FABP probe: Y14M, L38M, L72W (protein, UniProt P02693 2-132, looked up, variant Y14M L38M L72W, acrylodan label, acrylodan-labeled mutant FABP probe: Y14M, L38M, L72W) Fatty acid-binding protein, …: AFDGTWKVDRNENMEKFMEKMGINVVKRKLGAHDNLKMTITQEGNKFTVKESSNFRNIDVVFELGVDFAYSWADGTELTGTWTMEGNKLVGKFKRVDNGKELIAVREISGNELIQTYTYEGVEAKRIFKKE")
6.66
>>> observed_measurement("L10P7 A4 L30C: acrylodan-labeled mutant FABP probe: Y14L, M18L, K27A, L30C, G31Y, A73L, Y117A (protein, UniProt P02693 2-132, looked up, variant Y14L M18L K27A L30C G31Y A73L Y117A, acrylodan label, acrylodan-labeled mutant FABP probe: Y14L, M18L, K27A, L30C, G31Y, A73L, Y117A) Fatty acid-binding protein, …: AFDGTWKVDRNENLEKFLEKMGINVVARKCYAHDNLKLTITQEGNKFTVKESSNFRNIDVVFELGVDFAYSLLDGTELTGTWTMEGNKLVGKFKRVDNGKELIAVREISGNELIQTATYEGVEAKRIFKKE")
8.57

Could you now consider this next molecule?
The reported pKd of the molecule L11P7 B3 V26C: acrylodan-labeled mutant FABP probe: M21F, V26C, L72A, L78V, L102V (protein, UniProt P02693 2-132, looked up, variant M21F V26C L72A L78V L102V, acrylodan label, acrylodan-labeled mutant FABP probe: M21F, V26C, L72A, L78V, L102V) Fatty acid-binding protein, …: AFDGTWKVDRNENYEKFMEKFGINVCKRKLGAHDNLKLTITQEGNKFTVKESSNFRNIDVVFELGVDFAYSAADGTEVTGTWTMEGNKLVGKFKRVDNGKEVIAVREISGNELIQTYTYEGVEAKRIFKKE was 7.95
